Source listed as patent US20260124201A1.

# Tested system: human OX2R (Homo sapiens, UniProt O43614)
# Construct: expressed in transfected cells
# Sequence (O43614 1-444): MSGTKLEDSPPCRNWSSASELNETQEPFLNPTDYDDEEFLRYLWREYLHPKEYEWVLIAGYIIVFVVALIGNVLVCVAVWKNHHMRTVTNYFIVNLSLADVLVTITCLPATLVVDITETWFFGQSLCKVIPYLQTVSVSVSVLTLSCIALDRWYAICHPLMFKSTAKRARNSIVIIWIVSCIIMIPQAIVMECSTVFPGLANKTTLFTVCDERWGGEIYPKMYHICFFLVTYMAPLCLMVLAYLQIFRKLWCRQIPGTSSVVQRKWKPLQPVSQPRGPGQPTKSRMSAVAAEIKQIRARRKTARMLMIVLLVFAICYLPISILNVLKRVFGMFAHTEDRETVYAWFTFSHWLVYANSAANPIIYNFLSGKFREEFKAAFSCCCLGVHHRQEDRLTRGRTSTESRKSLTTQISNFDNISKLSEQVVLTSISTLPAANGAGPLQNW
# Procedure summary: Measurement of OX2R agonist activity (intracellular calcium concentration change, Fluo4-AM, FDSS 7000)
# Format: cell-based
# Measurement conditions: compound concentration 10 μM; human OX2R-expressing CHO-K1 cells; 1 μM human orexin A peptide = 100%, medium alone = 0%
Decision: Act. (%): activation rate of test substance compared against 90%; not below it gives true, below it gives false.

[[record]]
compound = "CON(C)C(=O)[C@@]1(Cc2ccc(Cl)c(-c3ncc(F)cn3)c2)C[C@H](F)[C@H](NS(C)(=O)=O)C1 [Example 62]"
class_name = "true"

[[record]]
compound = "CCS(=O)(=O)N[C@@H]1C[C@@](Cc2cccc(-c3ncc(F)cn3)c2)(C(=O)N(C)OC)C[C@@H]1F [Example 59]"
class_name = "true"

[[record]]
compound = "CON(C)C(=O)[C@@]1(Cc2cccc(-c3ccc(F)cn3)c2)CC[C@H](NS(C)(=O)=O)C1 (relative stereo) [Example 12]"
class_name = "false"

[[record]]
compound = "CON(C)C(=O)[C@]1(Cc2ccc(F)c(-c3ncc(F)cn3)c2)C[C@@H](NS(C)(=O)=O)C(F)(F)C1 (relative stereo) [Example 42]"
class_name = "false"

[[record]]
compound = "C[C@@H]1CCCN1C(=O)[C@@]1(Cc2cccc(-c3ccccc3)c2)CC[C@H](NS(C)(=O)=O)C1 (relative stereo) [Example 9]"
class_name = "false"

[[record]]
compound = "CON(C)C(=O)[C@@]1(Cc2cccc(-c3ncc(C(F)(F)F)cn3)c2)CC[C@H](NS(C)(=O)=O)C1 (relative stereo) [Example 19]"
class_name = "false"

[[record]]
compound = "CON(C)C(=O)[C@@]1(Cc2cccc(-c3ncc(C)cn3)c2)CC[C@H](NS(C)(=O)=O)C1 (relative stereo) [Example 18]"
class_name = "false"

[[record]]
compound = "CS(=O)(=O)N[C@H]1CC[C@](Cc2cccc(-c3ccccc3)c2)(C(=O)NCCO)C1 (relative stereo) [Example 73]"
class_name = "false"

[[record]]
compound = "CCS(=O)(=O)N[C@@H]1C[C@@](Cc2cc(-c3ncccn3)ccc2F)(C(=O)N(C)OC)C[C@@H]1F [Example 61]"
class_name = "true"

[[record]]
compound = "CS(=O)(=O)N[C@H]1CC[C@](Cc2cccc(-c3ccccc3)c2)(C(N)=O)C1 (relative stereo) [Example 72]"
class_name = "false"

[[record]]
compound = "CON(C)C(=O)[C@@]1(Cc2cccc(-c3ncccn3)c2)CC[C@H](NS(=O)(=O)C2(C)CC2)C1 (relative stereo) [Example 31]"
class_name = "true"

[[record]]
compound = "CONC(=O)[C@@]1(Cc2cccc(-c3ncccn3)c2)CC[C@H](NS(C)(=O)=O)C1 (relative stereo) [Example 29]"
class_name = "false"

[[record]]
compound = "CON(C)C(=O)[C@]1(Cc2cc(-c3ncc(F)cn3)ccc2F)C[C@@H](NS(C)(=O)=O)C(F)(F)C1 (relative stereo) [Example 43]"
class_name = "true"

[[record]]
compound = "CON(C)C(=O)[C@@]1(Cc2cccc(-c3ncc(F)cn3)c2)C[C@H](F)[C@H](NS(=O)(=O)C(C)C)C1 [Example 58]"
class_name = "true"

[[record]]
compound = "CON(C)C(=O)[C@@]1(Cc2ccc(F)c(-c3ncc(F)cn3)c2)CC[C@H](NS(C)(=O)=O)C1 [Example 48]"
class_name = "true"

[[record]]
compound = "CON(C)C(=O)[C@@]1(Cc2cccc(-c3ncc(F)cn3)c2)C[C@@H](C)[C@H](NS(C)(=O)=O)C1 (relative stereo) [Example 44]"
class_name = "true"

